// reported inhibition per item
test_system: Kelch-like ECH-associated protein 1 (Homo sapiens) (UniProt Q14145)
Sequence (Q14145 whole entry, looked up, the tested form may be a part): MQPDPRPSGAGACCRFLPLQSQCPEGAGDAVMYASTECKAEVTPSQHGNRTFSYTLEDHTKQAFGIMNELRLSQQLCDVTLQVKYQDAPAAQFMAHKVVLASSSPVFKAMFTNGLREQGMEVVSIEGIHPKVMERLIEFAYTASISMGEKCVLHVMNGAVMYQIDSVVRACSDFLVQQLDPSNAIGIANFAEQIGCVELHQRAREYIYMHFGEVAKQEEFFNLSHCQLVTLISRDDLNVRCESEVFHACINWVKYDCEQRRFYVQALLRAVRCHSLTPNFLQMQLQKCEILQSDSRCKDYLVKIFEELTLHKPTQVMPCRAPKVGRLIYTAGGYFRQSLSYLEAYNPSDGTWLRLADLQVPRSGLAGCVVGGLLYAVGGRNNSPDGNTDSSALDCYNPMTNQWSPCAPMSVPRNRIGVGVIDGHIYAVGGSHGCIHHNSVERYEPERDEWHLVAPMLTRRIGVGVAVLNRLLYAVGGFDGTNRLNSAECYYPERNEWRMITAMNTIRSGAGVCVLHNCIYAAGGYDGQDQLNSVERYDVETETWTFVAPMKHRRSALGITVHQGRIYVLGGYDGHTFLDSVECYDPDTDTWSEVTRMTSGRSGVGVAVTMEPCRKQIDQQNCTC
protocol: Keap1-Nrf2 protein-protein interaction inhibitors, primary screen, biochemical, fluorescence polarization, single point (AID 504523);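 note: human Keap1 Kelch domain with fluorescein labeled Nrf2 9mer peptide probe; 0% = neutral control wells and 100% = peptide positive control; higher means more block of Keap1 binding to Nrf2 peptide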
condition_summary: Keap1 Kelch-Nrf2 peptide fluorescence polarization, 1536-well; at 9.4 µM; stronger effect = higher value
About 490 (0.14%) of roughly 340,000 compounds were called active. What follows is part of a selection rich in actives, with near analogues and random picks from the rest.
Field: numeric (%). Do not append units.

Reference set (3 entries):
• O=C(O)CC(CC(=O)N1CCOCC1)c1ccccc1 (configuration not stated) = -1.3
• Cc1nn(C)cc1N1C(=O)c2cccc3c(N)ccc(c23)C1=O = 71
• CC1=NNC(=O)C1CC(=O)N/N=C/c1ccncc1 (configuration not stated) = 2.78

I am curious: what inhibition value has been reported for `CCOC(=O)c1c(C)n(C)c2ccc(OC)c(NC(=O)CN3CCC4(CC3)OCCO4)c12` ? -2.53

Item: `CC(C)(C)N(Cc1ccccc1)C(=O)COC(=O)CCc1c[nH]c2ccccc12` -5.52

Item: `CN1C(=O)c2cccc3c(N)ccc(c23)C1=O` 16.4

Item: `CN(C)c1ccc(C(=S)N2CCN(C(=S)Nc3ccc(Cl)cc3)CC2)cc1` 1.08

Item: OC1CSc2nc3ccccc3n2C1 (configuration not stated) 1.42

Item: COc1cccc(CN2CCNC(=O)C2CC(=O)N(C)CCc2ccccn2)c1 (configuration not stated) -0.18

Item: COc1ccc(N2C(=O)C(O)C2c2ccc(C)cc2)cc1 (configuration not stated) -3.41

Item: O=C1c2cccc3c([N+](=O)[O-])ccc(c23)C(=O)N1CC1CCCO1 (configuration not stated) -6.02

Item: CC(C(=O)O)N1C(=O)c2cccc3cccc1c23 (configuration not stated) -0.759
